Attribute: IC50
Assay System: PIK3CB (Human) (UniProt P42338)
Sequence (P42338 whole entry, looked up): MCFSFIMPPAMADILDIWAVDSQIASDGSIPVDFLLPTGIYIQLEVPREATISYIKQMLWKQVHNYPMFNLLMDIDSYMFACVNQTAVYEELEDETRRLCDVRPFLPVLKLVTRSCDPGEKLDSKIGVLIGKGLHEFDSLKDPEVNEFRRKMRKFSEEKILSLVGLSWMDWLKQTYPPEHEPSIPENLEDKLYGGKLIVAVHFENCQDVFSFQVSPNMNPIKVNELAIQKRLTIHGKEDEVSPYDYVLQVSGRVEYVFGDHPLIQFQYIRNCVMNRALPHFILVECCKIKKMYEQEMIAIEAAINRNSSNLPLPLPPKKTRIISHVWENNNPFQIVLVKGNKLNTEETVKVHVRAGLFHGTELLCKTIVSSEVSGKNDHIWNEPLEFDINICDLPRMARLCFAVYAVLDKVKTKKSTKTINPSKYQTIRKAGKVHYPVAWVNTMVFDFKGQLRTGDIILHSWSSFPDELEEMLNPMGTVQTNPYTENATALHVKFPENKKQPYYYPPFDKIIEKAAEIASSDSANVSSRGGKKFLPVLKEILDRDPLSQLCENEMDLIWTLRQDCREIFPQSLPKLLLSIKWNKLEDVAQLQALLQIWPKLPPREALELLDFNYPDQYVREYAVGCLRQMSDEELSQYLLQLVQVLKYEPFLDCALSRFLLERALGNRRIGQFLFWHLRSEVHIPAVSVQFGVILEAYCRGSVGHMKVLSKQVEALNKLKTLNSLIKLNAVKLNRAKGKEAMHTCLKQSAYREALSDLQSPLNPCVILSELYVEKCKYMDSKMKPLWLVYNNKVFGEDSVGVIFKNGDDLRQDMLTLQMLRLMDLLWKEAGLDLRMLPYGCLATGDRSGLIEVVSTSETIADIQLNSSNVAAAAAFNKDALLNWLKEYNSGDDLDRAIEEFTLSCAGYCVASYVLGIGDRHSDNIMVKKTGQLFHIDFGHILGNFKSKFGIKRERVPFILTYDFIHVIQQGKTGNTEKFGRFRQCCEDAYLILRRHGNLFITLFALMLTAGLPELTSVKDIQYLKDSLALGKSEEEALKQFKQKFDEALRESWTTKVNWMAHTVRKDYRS
Run Description: Assessment of PIK3CB Kinase Activity
Readout Name: IC50

{"Line Notation": "Cc1cc(-c2cccc3cc([C@H](C)Nc4nc(N)ncc4C#N)n(-c4ccccc4)c(=O)c23)cn(C)c1=O", "Readout Name": "IC50", "Data Value": "> 10 µM"}
{"Line Notation": "COc1cc(-c2cccc3cc([C@H](C)Nc4nc(N)ncc4C(=O)O)n(-c4ccccc4)c(=O)c23)ccn1", "Readout Name": "IC50", "Data Value": "> 10 µM"}
{"Line Notation": "C#Cc1cccc2cc([C@H](C)Nc3nc(N)ncc3C#N)n(-c3ccccc3)c(=O)c12", "Readout Name": "IC50", "Data Value": "0.1 to 1 µM"}
{"Line Notation": "Cc1csc(-c2cnc(N)nc2N[C@@H](C)c2cc3cccc(Cl)c3c(=O)n2-c2ccccc2)n1", "Readout Name": "IC50", "Data Value": "0.1 to 1 µM"}
{"Line Notation": "COc1cncc(-c2cccc3cc([C@H](C)Nc4nc(N)ncc4C#N)n(C4CC4)c(=O)c23)c1", "Readout Name": "IC50", "Data Value": "0.1 to 1 µM"}
{"Line Notation": "C[C@H](Nc1nc(N)ncc1C(=O)N1CCC1)c1cc2cccc(-c3cnn(C)c3)c2c(=O)n1-c1ccccc1", "Readout Name": "IC50", "Data Value": "> 10 µM"}
{"Line Notation": "CCN(C)C(=O)c1cnc(N)nc1N[C@@H](C)c1cc2cccc(-c3ccnc(OC)c3)c2c(=O)n1-c1ccccc1", "Readout Name": "IC50", "Data Value": "> 10 µM"}
{"Line Notation": "C[C@H](Nc1nc(N)ncc1[N+](=O)[O-])c1cc2cccc(Cl)c2c(=O)n1-c1ccccc1", "Readout Name": "IC50", "Data Value": "0.1 to 1 µM"}
{"Line Notation": "COc1ncc(-c2cccc3cc([C@H](C)Nc4nc(N)ncc4C#N)n(-c4ccon4)c(=O)c23)cn1", "Readout Name": "IC50", "Data Value": "> 10 µM"}
{"Line Notation": "CC(C)n1c([C@H](C)Nc2nc(N)ncc2C#N)cc2cccc(Cl)c2c1=O", "Readout Name": "IC50", "Data Value": "< 0.1 µM"}
{"Line Notation": "Cc1nc(N)nc(N[C@@H](C)c2cc3cccc(Cl)c3c(=O)n2-c2ccccc2)c1C#N", "Readout Name": "IC50", "Data Value": "< 0.1 µM"}
{"Line Notation": "C[C@H](Nc1nc(N)ncc1C#N)c1cc2cccc(Cl)c2c(=O)n1-c1cccc(F)c1", "Readout Name": "IC50", "Data Value": "0.1 to 1 µM"}
{"Line Notation": "C[C@H](Nc1nc(N)ncc1C#N)c1cc2cccc(-c3cnc4ccccc4c3)c2c(=O)n1-c1ccccc1", "Readout Name": "IC50", "Data Value": "0.1 to 1 µM"}
{"Line Notation": "COc1cccc2cc([C@H](C)Nc3nc(N)ncc3C#N)n(-c3ccccc3)c(=O)c12", "Readout Name": "IC50", "Data Value": "> 10 µM"}
{"Line Notation": "C[C@H](Nc1nc(N)ncc1C(=O)N1CCC1)c1cc2cccc(Cl)c2c(=O)n1-c1ccccc1", "Readout Name": "IC50", "Data Value": "> 10 µM"}
{"Line Notation": "C[C@H](Nc1nc(N)ncc1C#N)c1cc2cccc(Oc3ccccc3)c2c(=O)n1-c1ccccc1", "Readout Name": "IC50", "Data Value": "> 10 µM"}
{"Line Notation": "C[C@H](Nc1nc(N)ncc1C#N)c1cc2cccc(Cl)c2c(=O)n1-c1ccc(Cl)cc1", "Readout Name": "IC50", "Data Value": "0.1 to 1 µM"}
{"Line Notation": "C[C@H](Nc1nc(N)ncc1-c1cncs1)c1cc2cccc(-c3ccc(=O)n(C)c3)c2c(=O)n1-c1ccccc1", "Readout Name": "IC50", "Data Value": "> 10 µM"}
{"Line Notation": "C[C@H](Nc1nc(N)ncc1C#N)c1cc2cccc(-c3cccc(NS(=O)(=O)N(C)C)c3)c2c(=O)n1-c1ccccc1", "Readout Name": "IC50", "Data Value": "> 10 µM"}
{"Line Notation": "C[C@H](Nc1nc(N)ncc1NC(=O)c1ccccc1)c1cc2cccc(Cl)c2c(=O)n1-c1ccccc1", "Readout Name": "IC50", "Data Value": "> 10 µM"}
{"Line Notation": "COc1cnc(-c2cccc3cc([C@H](C)Nc4nc(N)ncc4C#N)n(-c4ccccc4)c(=O)c23)nc1", "Readout Name": "IC50", "Data Value": "> 10 µM"}
{"Line Notation": "COc1ncc(-c2cccc3cc([C@H](C)Nc4nc(N)ncc4C#N)n(C(C)C)c(=O)c23)cn1", "Readout Name": "IC50", "Data Value": "> 10 µM"}
{"Line Notation": "C[C@H](Nc1nc(Cl)ncc1[N+](=O)[O-])c1cc2cccc(Cl)c2c(=O)n1-c1ccccc1", "Readout Name": "IC50", "Data Value": "> 10 µM"}
{"Line Notation": "C[C@H](Nc1nc(N)ncc1C#N)c1cc2cccc(Cl)c2c(C(=O)NC2CCOCC2)n1", "Readout Name": "IC50", "Data Value": "> 10 µM"}
{"Line Notation": "COc1cc(N[C@@H](C)c2cc3cccc(Cl)c3c(=O)n2-c2ccccc2)nc(N)n1", "Readout Name": "IC50", "Data Value": "> 10 µM"}
{"Line Notation": "Cc1ncc(-c2cccc3cc([C@H](C)Nc4nc(N)ncc4C#N)n(-c4cccc(F)c4)c(=O)c23)cn1", "Readout Name": "IC50", "Data Value": "> 10 µM"}
